tested on: Hepatitis C virus; test: Antiviral activity against HCV genotype 2a infected in Huh7.5 cells assessed as inhibition of viral replication at 72 hrs by luciferase reporter-based viral replicon assay; format: functional, organism-based, Hepacivirus hominis; details: Huh7.5, 72 h
readout-name: EC50 (µM)
// units = µM; emit number, no label

Exercise: Consider the molecule `Clc1ccc(Cn2c(CN3CCCC3)nc3ccccc32)cc1` and give its measured EC50.
Solution: 8

* * *

experiment: Ratio of drug level in brain to plasma in CRL-CD-BR rat; assay type: ADME, cell-free; conditions: read-out: BPR
readout-name: Kp
Respond numerically, and do not add a unit to the figure.

Exercise: Consider the compound `CCc1cc2c(cc1F)c(C#N)c(-c1ccc(S(=O)(=O)N[C@@H](C)C(F)(F)F)cn1)n2-c1ncccn1` and give its measured Kp.
Solution: 0.22

* * *

assay: Cytotoxicity against human Huh7.5 cells infected with HCV genotype 1b after 24 hrs by Cell Titer-Glo assay; format: cell-based, Huh-7
readout-name: CC50 at 24 h

O=C(NCc1cccs1)c1nn2c(c1Cl)N[C@H](c1ccco1)C[C@@H]2C(F)(F)F    > 100 µM

Field: next compound
Exercise: Consider the compound O=C(NCc1cccs1)c1nn2c(c1Cl)NC(c1ccco1)CC2C(F)(F)F (racemic) and give its measured CC50 at 24 h.
Solution: > 100 µM

* * *

tested on: Hepatitis C virus; experiment: Antiviral activity against HCV genotype 1b infected in Huh7 cells assessed as inhibition of viral replication after 48 hrs by luciferase reporter-based viral replicon assay; assay type: functional, organism-based, Hepacivirus hominis; settings: Huh-7, 48 h
readout-name: EC50 (nM)
// units = nM; emit number, no label

Exercise: Lab request: please report EC50 under test system Hepatitis C virus for O=C(NCc1cccs1)c1cc2nc(-c3ccco3)cc(C(F)(F)Cl)n2n1 [ANGUIZOLE]
Solution: 310

* * *

system: Hepatitis C virus; assay: Antiviral activity against HCV genotype 3a infected in human Huh7 cells assessed as inhibition of viral replication by luciferase reporter-based viral replicon assay; type: functional, organism-based, Hepacivirus hominis; conditions: Huh-7
readout-name: pEC50
pEC50 (log units): -log10 of the concentration in mol/L.

Exercise: Consider the molecule `O=C(c1ccccc1)N1CCC2(CCCN(c3ncc(-c4ccccc4)c(-c4ccc(Cl)cc4)n3)C2)CC1` and give its measured pEC50.
Solution: 7.36

* * *

test: Cytotoxicity against human HuH7 cells by Cell Titer-Glo assay; type: cell-based, Huh-7
readout-name: CC50 (µM)
// units = µM; emit number, no label

Exercise: Consider the compound `O=C(c1ccccc1)N1CCC2(CCCN(c3ncc(Br)c(-c4ccc(Cl)cc4)n3)C2)CC1` and give its measured CC50.
Solution: 38.7

Data provenance is ChEMBL document CHEMBL3751691.
